Source of measurements: ChEMBL document CHEMBL5375967

- procedure.summary: Clearance in C57BL/6 mouse at 1 mg/kg, iv measured upto 24 hrs by LC-MS/MS analysis
- Type: ADME, organism-based
- condition.notes: in vivo
measure: clearance (mL/min/kg)
Give just the numeric value; mL/min/kg need not be written.

clearance reported for this molecule N[C@H](CO)Cn1ccc(-c2ccc(Oc3ncc(-c4cc[nH]n4)cc3F)cc2)n1 : 7.5

====

- procedure.summary: Clearance in dog at 1 mg/kg, iv measured upto 24 hrs by LC-MS/MS analysis
- Assay type: ADME, organism-based, Canis lupus familiaris
- condition.notes: in vivo
measure: clearance (mL/min/kg)
Entry rule: numbers only, all in mL/min/kg.

# compound N[C@H](CO)Cn1ccc(-c2ccc(Oc3ncc(-c4cc[nH]n4)cc3F)cc2)n1 ; its clearance = 2.2

====

- procedure.summary: in vivo
- condition.notes: C57BL/6, mouse, in vivo, po, 10 mg/kg
measure: concentration at 2 h (nM)
Field: numeric (nM). Do not append units.

• N[C@@H](CC(=O)O)Cn1nnc(-c2ccc(Oc3ncc(Cl)cc3F)cc2)n1 = 1290

Moving on to another compound below.
Sample N[C@H](CO)Cn1ccc(-c2ccc(Oc3ncc(-c4cc[nH]n4)cc3F)cc2)n1 ; concentration at 2 h observed: 2600

====

Items are presented alongside their recorded concentration at 24 h.
- procedure.summary: in vivo
- condition.notes: C57BL/6, mouse, in vivo, po, 10 mg/kg
Answer format: numeric, nM implied, no suffix.

• N[C@H](CO)Cn1ccc(-c2ccc(Oc3ncc(-c4cc[nH]n4)cc3F)cc2)n1 = 218

Continue with the molecule presented below.
The molecule N[C@@H](CC(=O)O)Cn1nnc(-c2ccc(Oc3ncc(Cl)cc3F)cc2)n1 showed concentration at 24 h equal to 184

====

- target.under.test: Leukotriene A-4 hydrolase (Homo sapiens)
- Sequence (P09960 whole entry): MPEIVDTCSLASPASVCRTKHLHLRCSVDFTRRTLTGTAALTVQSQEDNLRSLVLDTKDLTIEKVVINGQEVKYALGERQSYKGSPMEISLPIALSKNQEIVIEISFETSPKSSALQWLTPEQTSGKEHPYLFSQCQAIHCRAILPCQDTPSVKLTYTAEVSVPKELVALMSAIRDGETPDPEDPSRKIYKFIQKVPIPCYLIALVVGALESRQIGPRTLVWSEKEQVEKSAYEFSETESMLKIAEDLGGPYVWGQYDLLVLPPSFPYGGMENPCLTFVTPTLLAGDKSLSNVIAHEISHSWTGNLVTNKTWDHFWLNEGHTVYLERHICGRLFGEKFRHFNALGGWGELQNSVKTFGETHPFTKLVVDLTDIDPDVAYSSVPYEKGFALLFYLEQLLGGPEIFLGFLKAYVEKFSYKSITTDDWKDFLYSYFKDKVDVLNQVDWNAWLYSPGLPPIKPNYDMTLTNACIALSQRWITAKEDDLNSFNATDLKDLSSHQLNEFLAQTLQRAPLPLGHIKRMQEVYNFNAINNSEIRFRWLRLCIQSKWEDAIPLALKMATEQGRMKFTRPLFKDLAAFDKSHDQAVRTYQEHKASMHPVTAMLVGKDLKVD
- procedure.summary: Inhibition of LTA4H in human blood assessed as LTB4 production
- Format: tissue-based
measure: IC50 (nM)
// return numeric value only (unit: nM, not printed)

response.value for O=C(O)c1ccc(CN2C[C@@H]3C[C@H]2CN3Cc2ccc(Oc3ccc(-c4ncco4)cc3)cc2)cc1 (field: IC50) = 135

Query CC(=O)N[C@H]1C[C@H]2CC[C@@H](C1)N2Cc1ccc(Oc2nc3ncccc3s2)cc1 yields IC50 of 42

====

- procedure.summary: Clearance in Wistar rat at 1 mg/kg, iv measured upto 24 hrs by LC-MS/MS analysis
- Assay type: ADME, organism-based
- condition.notes: in vivo
measure: clearance (mL/min/kg)
Note: unit mL/min/kg is implicit; provide only the numeric part.

Form field clearance, entry N[C@H](CO)Cn1ccc(-c2ccc(Oc3ncc(-c4cc[nH]n4)cc3F)cc2)n1 : 7.3

====

- procedure.summary: physchem
- condition.notes: octanol/water, pH 7.4
Quick rule for you: logD under 2 gets Fulfilled, anything else gets Not fulfilled.

- N[C@H](CCO)Cn1nnc(-c2ccc(Oc3ncc(Cl)cc3F)cc2)n1: Not fulfilled
- Cc1ccc(Oc2ccc(-c3nnn(CCN)n3)cc2)cc1: Not fulfilled
- N[C@H](CO)Cc1nc(-c2ccc(Oc3ccc(-c4cc[nH]n4)cn3)cc2)no1: Fulfilled

Q: Input N[C@@H](CC(=O)O)Cn1nnc(-c2ccc(Oc3ncc(Cl)cc3F)cc2)n1 ; condition: logD strictly below 2. Does it hold?
Result: Fulfilled

Q: # check: logD < 2 for N[C@H](CO)Cn1nnc(-c2ccc(Oc3ncc(Cl)cc3F)cc2)n1
Result: Not fulfilled

Q: Given N[C@@H](CO)Cn1nnc(-c2ccc(Oc3ncc(Cl)cc3F)cc2)n1 , is recorded logD strictly lower than 2?
Result: Not fulfilled
